Values compiled from the Human Domainome abundance scans (Beltran et al. 2025).

B1: Segment polarity protein dishevelled homolog DVL-3, residues 2 to 81; numbered along this chain, Q92997 (parent)
chain: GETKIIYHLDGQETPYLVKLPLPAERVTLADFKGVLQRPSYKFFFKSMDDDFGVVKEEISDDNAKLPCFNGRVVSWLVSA

Variants of: B1
Test: abundance fitness (aPCA) (normalised: wild type 0, dead -1); higher = more abundant; growth selection in yeast, the domain comes from the species named
Conditions: Homo sapiens
The entries below are paired with their reported abundance fitness.

construct_sequence=GETKIIYHLDGQETPYLVKLPLPAERVTLADFKGVLQRPSPKFFFKSMDDDFGVVKEEISDDNAKLPCFNGRVVSWLVSA result=-0.538

Entry `GETKIIYHLDGQETPYLVKLPLPAERVTLADFKGVLQRPSYKFFFKSMDDDFGVVKEEISDDNAKLPCFNTRVVSWLVSA` : reported abundance fitness = ?
-0.919

What does the data say about its abundance fitness? Entry: `GETKIIYHLDGQETPYLVKLPLPAERVILADFKGVLQRPSYKFFFKSMDDDFGVVKEEISDDNAKLPCFNGRVVSWLVSA`
-0.578

Endpoint output: abundance fitness of `GETKIIYHLDGQETPYLVKLPLPAERVTLADFKGVLQRPSYKFFFKSMDDDFGVVKQEISDDNAKLPCFNGRVVSWLVSA` . Value?
0.256

For the variant shown here, `GETKIIYHLDGQETPYLVKLPLPAERVTLADFKGVLQRPSYKFFFKSMDDKFGVVKEEISDDNAKLPCFNGRVVSWLVSA` , give the reported abundance fitness.
0.197

May I ask what abundance fitness has been recorded for `GETKIIYHLDGQETPYLVKLPLPAERVTLADFKGVLQRPSYKFFFKSMDIDFGVVKEEISDDNAKLPCFNGRVVSWLVSA` ?
-0.421
